Kindly supply the reported pIC50 values for the records listed here.
target: kinases (kinome) (Homo sapiens, UniProt Q13705); construct: determined in kinobeads assays with mass spectrometry detection of kinases as described previously; endogenous in cells; assay: kinobeads assay with mass spectrometry detection of kinases (kinase selectivity profile); details: ACTR2B (TKL), IPI00437565
Sequence (Q13705 19-512): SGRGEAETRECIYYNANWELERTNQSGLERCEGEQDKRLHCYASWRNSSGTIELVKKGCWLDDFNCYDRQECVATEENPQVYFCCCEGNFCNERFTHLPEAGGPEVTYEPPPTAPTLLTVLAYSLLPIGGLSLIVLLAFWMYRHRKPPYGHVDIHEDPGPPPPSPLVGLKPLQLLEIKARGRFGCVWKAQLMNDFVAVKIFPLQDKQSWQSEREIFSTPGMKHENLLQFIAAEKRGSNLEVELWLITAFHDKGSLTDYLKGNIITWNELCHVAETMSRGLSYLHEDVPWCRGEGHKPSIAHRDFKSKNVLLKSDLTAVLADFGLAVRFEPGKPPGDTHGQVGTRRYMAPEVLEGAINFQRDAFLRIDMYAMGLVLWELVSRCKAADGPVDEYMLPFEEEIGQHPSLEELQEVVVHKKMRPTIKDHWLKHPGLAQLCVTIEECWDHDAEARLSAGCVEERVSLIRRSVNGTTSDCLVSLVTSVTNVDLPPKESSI
pIC50: −log10 of the molar value.

What value of measured pIC50 is listed for C[C@H]1COCCN1c1nc(-c2ccc(NC(=O)NC3CC3)cc2)cc(-c2ccccc2S(C)(=O)=O)n1 ?
< 5.00

What value of measured pIC50 is listed for C[C@H]1COCCN1c1nc(-c2ccc(NC(=O)NC3CC3)cc2)cc(-c2cccnc2S(C)(=O)=O)n1 ?
< 5.00

What value of measured pIC50 is listed for C[C@H]1COCCN1c1nc(-c2ccc(NC(=O)N[C@H]3CCC[C@@H]3O)cc2)cc(-c2cc(F)ccc2S(C)(=O)=O)n1 ?
< 5.00

What value of measured pIC50 is listed for C[C@H]1COCCN1c1nc(-c2ccc(NC(=O)NC3CC3)cc2)cc(-c2cc(F)ccc2S(C)(=O)=O)n1 ?
< 5.00

What value of measured pIC50 is listed for C[C@H]1COCCN1c1cc(-c2ccccc2S(C)(=O)=O)nc(-c2ccc(NC(=O)NC3CC3)cc2)n1 ?
< 5.00

What value of measured pIC50 is listed for C[C@H]1COCCN1c1cc(-c2ccccn2)nc(-c2ccc(NC(=O)NCCO)cc2)n1 ?
< 5.00

What value of measured pIC50 is listed for CCNC(=O)Nc1ccc(-c2cc(-c3ccccc3C#N)nc(N3CCOC[C@@H]3C)n2)cc1 ?
< 5.00

All figures here come from patent US9249129B2.
